- measured-target: h-cGAS (Homo sapiens)
- Construct: The final concentration of full-length h-cGAS, dsDNA, ATP, and GTP were 100 nM
- Sequence (Q8N884 whole entry): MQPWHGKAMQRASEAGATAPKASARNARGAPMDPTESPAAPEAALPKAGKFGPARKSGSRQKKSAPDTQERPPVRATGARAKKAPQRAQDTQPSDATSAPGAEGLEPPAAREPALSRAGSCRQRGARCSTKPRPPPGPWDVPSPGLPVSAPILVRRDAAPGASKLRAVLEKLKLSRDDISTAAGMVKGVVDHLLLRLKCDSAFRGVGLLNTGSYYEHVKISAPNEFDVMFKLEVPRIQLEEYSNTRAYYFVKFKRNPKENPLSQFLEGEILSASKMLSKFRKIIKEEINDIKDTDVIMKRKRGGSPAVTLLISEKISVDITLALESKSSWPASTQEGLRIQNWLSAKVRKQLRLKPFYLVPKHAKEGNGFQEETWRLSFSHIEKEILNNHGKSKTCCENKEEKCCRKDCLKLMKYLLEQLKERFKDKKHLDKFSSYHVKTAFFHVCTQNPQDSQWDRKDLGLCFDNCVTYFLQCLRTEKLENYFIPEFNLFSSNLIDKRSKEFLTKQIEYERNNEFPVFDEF
- measurement-protocol: cGAS biochemical assay, RapidFire 365 mass spectrometry (RF-MS)
- measurement-setup: full-length h-cGAS 100 nM, dsDNA 25 nM, ATP and GTP 100 μM, 7 h at RT
Reported pIC50 values for the following compounds.
# pIC50 = -log10(concentration in molar units)

Observe how each entry below is paired with its result.
O=C(CO)N1CCc2[nH]c3c(F)c(Cl)cc(-c4cn[nH]c4)c3c2C1 = 7.49
Cn1nccc1-c1cc(Cl)c(Cl)c2[nH]c3c(c12)CN(C(=O)CO)CC3 = 5.49
CNc1ccc(-c2cc(Cl)c(Cl)c3[nH]c4c(c23)CN(C(=O)CO)CC4)cn1 = 6.98

Now take the following compound into account.
Can you look up the measured pIC50 of CN1CC=C(c2cc(Cl)c(Cl)c3[nH]c4c(c23)CN(C(=O)CO)CC4)CC1 for me?
6.38
